meta.source: patent US10639284B2

target: human PD-L1 / Human PD-1 (Homo sapiens (Human)); experiment: Enzyme-Linked Immunosorbent Assay (ELISA), PD-1/PD-L1 binding; conditions: Table 3; plate-coated human PD-L1, biotinylated human PD-1; read-out: ELISA IC50
Sequence (Q9NZQ7 19-239): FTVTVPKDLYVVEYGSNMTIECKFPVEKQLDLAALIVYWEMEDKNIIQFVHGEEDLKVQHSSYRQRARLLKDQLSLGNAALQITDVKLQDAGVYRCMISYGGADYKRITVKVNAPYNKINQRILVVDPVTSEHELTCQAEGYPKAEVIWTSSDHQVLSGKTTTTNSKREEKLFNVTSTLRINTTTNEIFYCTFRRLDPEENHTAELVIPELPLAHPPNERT
property: IC50

Check out these entries, answers already filled in.
# compound, target.of.assay, IC50
measured = [
    ("C[C@@H](O)[C@@H](CC(=O)O)NCc1cc(Cl)c(O[C@H]2CCc3c(-c4ccccc4F)cccc32)cc1OCc1cncc(C#N)c1 [Example 3.116]", "human PD-L1 / Human PD-1 (Homo sapiens (Human))", "500 to 20000 nM"),
    ("N#Cc1cncc(COc2cc(O[C@H]3CCc4c(-c5ccccc5F)cccc43)c(Cl)cc2CN[C@@H]2CCCC[C@H]2O)c1 [Example 3.071]", "human PD-L1 / Human PD-1 (Homo sapiens (Human))", "< 100 nM"),
]

Query: Bench note: what IC50 did Cn1cnc(CNCc2cc(Cl)c(O[C@H]3CCc4c(-c5ccccc5F)cccc43)cc2OCc2cncc(C#N)c2)c1 [Example 3.091] show?
Result: < 100 nM

Query: Query (compound): N#Cc1cncc(COc2cc(O[C@H]3CCc4c(-c5ccccc5F)cccc43)c(Cl)cc2CNCCN2CCCCC2CO)c1 (stereo partly shown) [Example 3.077] ; field requested: IC50
Result: 100 to 500 nM
